# assayedTarget: T1, recombinant human PlGF-2 (produced in Pichia) (human, UniProt P49763-3 19-170, limits assumed)
# T1 construct: also called huPlGF-2; rhuPlGF-2
# T1 sequence (looked up): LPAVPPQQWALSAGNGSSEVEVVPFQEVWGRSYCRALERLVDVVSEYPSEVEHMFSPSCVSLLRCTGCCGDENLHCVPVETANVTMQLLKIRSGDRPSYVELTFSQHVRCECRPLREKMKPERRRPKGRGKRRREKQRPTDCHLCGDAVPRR
# testMethodNotes: Biacore, rhuPlGF-2 (Pichia) immobilized, antibody injected
measurementType: Kd (nM)
Quick reminder: number only, in nM, skip the unit.

Would you please look over these solved cases?
humanized antibody 16D3 IgG4 kappa (antibody, V domains shown, Expressed transiently in HEK 293 cells; also called hu16D3; Hu16D3 IgG4κ) VH: QVQLQQSGAELVKPGASVKISCKASGYTFTDYYINWVKLAPGQGLEWIGWIYPGSGNTKYNEKFKGKATLTIDTSSSTAYMQLSSLTSEDTAVYFCVRDSPFFDYWGQGTLLTVSS VL: DIVLTQSPDSLAVSLGERVTMNCKSSQSLLNSGMRKSFLAWYQQKPGQSPKLLIYWASTRESGVPDRFTGSGSGTDFTLTISSVQAEDVAVYYCKQSYHLFTFGSGTKLEIK; 0.161
humanized Fab 16D3 (Fab, V domains shown, also called hp16D3mutcomplFab; hp16D3mutcmplFab) VH: QVQLQQSGAELVKPGASVKISCKASGYTFTDYYINWVKLAPGQGLEWIGWIYPGSGNTKYNEKFKGKATLTIDTSSSTAYMQLSSLTSEDTAVYFCVRDSPFFDYWGQGTLLTVSS VL: DIVLTQSPDSLAVSLGERVTMNCKSSQSLLNSGMRKSFLAWYQQKPGQSPKLLIYWASTRESGVPDRFTGSGSGTDFTLTISSVQAEDVAVYYCKQSYHLFTFGSGTKLEIK; 0.131

I am curious: what Kd value has been reported for humanized scFv of 16D3 (scFv, also called humanized scFv16D3; scFvhp16D3mut) scFv: QVQLQQSGAELVKPGASVKISCKASGYTFTDYYINWVKLAPGQGLEWIGWIYPGSGNTKYNEKFKGKATLTIDTSSSTAYMQLSSLTSEDTAVYFCVRDSPFFDYWGQGTLLTVSSGGGGSGGGGSGGGGSDIVLTQSPDSLAVSLGERVTMNCKSSQSLLNSGMRKSFLAWYQQKPGQSPKLLIYWASTRESGVPDRFTGSGSGTDFTLTISSVQAEDVAVYYCKQSYHLFTFGSGTKLEIKGSYPYDVPDYAGSHHHHHH ?
0.195
